molecular target: UniProtKB P41594; assay: Positive allosteric modulation of mGlu5 receptor assessed as calcium mobilization; type: functional
Sequence (P41594 whole entry): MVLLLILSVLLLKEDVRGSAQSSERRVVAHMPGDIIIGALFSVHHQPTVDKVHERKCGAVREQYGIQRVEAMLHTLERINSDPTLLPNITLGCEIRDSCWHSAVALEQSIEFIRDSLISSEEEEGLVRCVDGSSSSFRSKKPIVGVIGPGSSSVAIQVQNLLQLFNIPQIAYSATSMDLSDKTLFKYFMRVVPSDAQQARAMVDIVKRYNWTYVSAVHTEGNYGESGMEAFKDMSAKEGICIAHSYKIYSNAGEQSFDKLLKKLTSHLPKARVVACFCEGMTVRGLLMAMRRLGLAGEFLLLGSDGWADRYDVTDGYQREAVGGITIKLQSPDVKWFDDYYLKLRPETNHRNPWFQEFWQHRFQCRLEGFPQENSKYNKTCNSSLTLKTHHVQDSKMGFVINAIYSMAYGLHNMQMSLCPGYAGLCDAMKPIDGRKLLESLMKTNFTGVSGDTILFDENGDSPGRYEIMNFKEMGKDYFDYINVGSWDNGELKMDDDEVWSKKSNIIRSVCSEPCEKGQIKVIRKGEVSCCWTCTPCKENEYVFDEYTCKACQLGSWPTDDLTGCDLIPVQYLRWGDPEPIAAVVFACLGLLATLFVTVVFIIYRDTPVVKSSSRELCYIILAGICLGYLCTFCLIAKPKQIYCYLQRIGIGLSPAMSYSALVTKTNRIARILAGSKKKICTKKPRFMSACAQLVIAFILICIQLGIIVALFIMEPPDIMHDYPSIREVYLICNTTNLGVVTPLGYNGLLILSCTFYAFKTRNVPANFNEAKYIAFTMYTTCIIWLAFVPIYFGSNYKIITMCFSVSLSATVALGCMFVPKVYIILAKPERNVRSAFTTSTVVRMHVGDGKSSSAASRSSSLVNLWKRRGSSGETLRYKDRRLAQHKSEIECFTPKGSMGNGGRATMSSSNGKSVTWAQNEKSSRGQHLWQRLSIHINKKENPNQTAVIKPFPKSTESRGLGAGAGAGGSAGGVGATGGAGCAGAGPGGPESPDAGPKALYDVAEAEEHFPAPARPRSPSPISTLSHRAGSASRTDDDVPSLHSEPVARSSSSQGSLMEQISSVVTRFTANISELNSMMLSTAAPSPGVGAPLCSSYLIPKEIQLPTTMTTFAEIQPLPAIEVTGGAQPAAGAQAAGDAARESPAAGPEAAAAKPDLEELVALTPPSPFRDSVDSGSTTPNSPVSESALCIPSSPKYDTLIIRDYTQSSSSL
measurementLabel: EC50 (µM)

The following molecules have reported results that may help.
compoundstring=O=C1NCCc2cc(C#Cc3ccccc3F)ccc21 measurementlabel=EC50 unitsofmeasure=µM measured=0.15
compoundstring=Cc1cccc(C#Cc2ccc3c(c2)CCNC3=O)c1 measurementlabel=EC50 unitsofmeasure=µM measured=0.17
compoundstring=O=C1NCCc2cc(C#Cc3ccc(F)cc3F)ccc21 measurementlabel=EC50 unitsofmeasure=µM measured=0.85
compoundstring=CN1CCc2cc(C#Cc3ccccc3)ccc2C1=O measurementlabel=EC50 unitsofmeasure=µM measured=0.25
compoundstring=CC(C)CN1CCc2nc(C#Cc3cccc(F)c3)ccc2C1=O measurementlabel=EC50 unitsofmeasure=µM measured=0.054

(I) O=C1c2ccc(C#Cc3ccccc3)cc2CCN1CCN1CCC1
(II) O=C1NC(=O)c2cc(C#Cc3cccc(F)c3)ccc21
(III) O=C1NC(=O)c2cc(C#Cc3ccc(F)c(F)c3)ccc21
(IV) O=C1NCCc2cc(C#Cc3cccc(Cl)c3)ccc21
Task: Sequence the entries by EC50, beginning with the highest number. Would you mind listing the labels in the order asked for?
Output: I, IV, III, II

(I) COc1cccc(C#Cc2ccc3c(c2)CCNC3=O)c1
(II) O=C(c1ccc(C#Cc2ccccc2)cc1)N1CCC(O)CC1
Task: From the recorded data, which exceeds the other in EC50: I or II ? Your answer should be the label attached to the chosen record.
Output: I

* * *

target: Metabotropic glutamate receptor 5 (Homo sapiens, UniProt P41594); test: Positive allosteric modulation of mGlu5 receptor assessed as calcium mobilization
pEC50: −log10 of the molar value.
measurementLabel: pEC50

The following molecules have reported results that may help.
compoundstring=O=C1NCCc2cc(C#Cc3ccc(F)cc3)ccc21 measured=6.59
compoundstring=O=C1NCc2cc(C#Cc3ccc(F)cc3)ccc21 measured=6.46
compoundstring=O=C1NCCc2nc(C#Cc3cccc(F)c3)ccc21 measured=6.54
compoundstring=O=C1c2ccc(C#Cc3cccc(F)c3)nc2CCN1CC1CCC1 measured=6.89
compoundstring=O=C1c2ccc(C#Cc3ccccc3)cc2C(=O)N1CCc1ccncc1 measured=6.05
compoundstring=O=C1c2ccc(C#Cc3ccccc3)cc2CCN1Cc1ccccc1 measured=6.26
compoundstring=O=C1NCCc2cc(C#Cc3ccccc3Cl)ccc21 measured=5.43
compoundstring=O=C1NCc2cc(C#Cc3ccccc3F)ccc21 measured=6.70
compoundstring=O=C1c2ccc(C#Cc3ccccc3)cc2CCN1CCN1CCOCC1 measured=5.44
compoundstring=CCCCN1CCc2nc(C#Cc3cccc(F)c3)ccc2C1=O measured=7.25

(I) CCCN1CCc2cc(C#Cc3ccccc3)ccc2C1=O
(II) Cc1cc(C#Cc2ccc3c(c2)CCNC3=O)ccc1F
Task: From the recorded data, which exceeds the other in pEC50: I or II ? Your answer should be the label attached to the chosen record.
Output: I
(I: 6.80, II: 5.31)

* * *

biological target: UniProt P41594; test: Positive allosteric modulation of mGlu5 receptor assessed as calcium mobilization at 30 uM relative to glutamate; type: functional
Sequence (P41594 21-1212 limits assumed): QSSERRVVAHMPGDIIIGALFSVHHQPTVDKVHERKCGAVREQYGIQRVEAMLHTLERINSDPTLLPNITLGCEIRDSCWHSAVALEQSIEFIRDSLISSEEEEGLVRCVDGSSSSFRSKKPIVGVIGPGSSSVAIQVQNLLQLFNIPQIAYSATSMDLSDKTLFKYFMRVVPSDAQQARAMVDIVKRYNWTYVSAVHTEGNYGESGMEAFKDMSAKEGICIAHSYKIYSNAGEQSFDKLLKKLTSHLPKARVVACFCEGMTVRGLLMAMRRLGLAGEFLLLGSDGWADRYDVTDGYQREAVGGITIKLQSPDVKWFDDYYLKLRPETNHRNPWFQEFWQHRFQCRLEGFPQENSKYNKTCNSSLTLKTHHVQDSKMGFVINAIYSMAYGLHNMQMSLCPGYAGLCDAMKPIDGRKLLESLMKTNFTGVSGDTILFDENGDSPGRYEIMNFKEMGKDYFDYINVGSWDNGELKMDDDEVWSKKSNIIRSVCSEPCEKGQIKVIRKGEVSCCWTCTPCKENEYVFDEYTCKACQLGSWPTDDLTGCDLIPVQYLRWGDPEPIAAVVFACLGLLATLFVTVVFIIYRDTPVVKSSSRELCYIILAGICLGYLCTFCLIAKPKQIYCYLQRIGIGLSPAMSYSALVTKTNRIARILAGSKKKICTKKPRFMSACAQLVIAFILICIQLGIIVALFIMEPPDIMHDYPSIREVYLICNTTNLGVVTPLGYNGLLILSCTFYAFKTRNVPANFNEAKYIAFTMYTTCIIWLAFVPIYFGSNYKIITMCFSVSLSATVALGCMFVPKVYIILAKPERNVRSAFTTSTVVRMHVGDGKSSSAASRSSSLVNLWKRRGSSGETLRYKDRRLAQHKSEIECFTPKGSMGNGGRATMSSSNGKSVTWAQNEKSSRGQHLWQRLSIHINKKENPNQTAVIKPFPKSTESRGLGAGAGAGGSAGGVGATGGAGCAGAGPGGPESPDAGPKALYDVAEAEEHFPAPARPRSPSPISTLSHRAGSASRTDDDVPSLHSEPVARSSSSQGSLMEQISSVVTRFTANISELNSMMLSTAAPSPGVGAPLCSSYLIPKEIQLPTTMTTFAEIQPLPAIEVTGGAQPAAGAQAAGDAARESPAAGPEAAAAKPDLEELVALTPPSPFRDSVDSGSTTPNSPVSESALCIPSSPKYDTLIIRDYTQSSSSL
measurementLabel: Activity (%)

The following compounds have reported results that may help.
compoundstring=Cc1ccccc1C#Cc1ccc2c(c1)CCNC2=O measured=53
compoundstring=O=C1c2ccc(C#Cc3ccccc3)cc2CCN1CCN1CCOCC1 measured=84
compoundstring=O=C1c2ccc(C#Cc3cccc(F)c3)nc2CCN1CC1CCC1 measured=53
compoundstring=O=C1NC(=O)c2cc(C#Cc3ccccc3F)ccc21 measured=93
compoundstring=O=C1NCc2cc(C#Cc3ccccc3F)ccc21 measured=67

(1) O=C1NC(=O)c2cc(C#Cc3ccc(F)cc3)ccc21
(2) O=C1NCc2cc(C#Cc3ccc(F)cc3)ccc21
Task: From the recorded data, which exceeds the other in Activity: 1 or 2 ? Your answer should be the label attached to the chosen record.
Output: 1
(1: 88%, 2: 60%)

(P) CC(C)CN1CCc2nc(C#Cc3cccc(F)c3)ccc2C1=O
(Q) O=C(c1ccc(C#Cc2ccccc2)cc1)N1CCC(O)CC1
Task: Hey, between P and Q which has a smaller measured Activity? Your answer should be the label attached to the chosen record.
Output: P
(P: 40%, Q: 72%)
